biological target: LPO purified from bovine milk (Bos taurus, UniProt P80025); construct: from tissue; host or cells: fresh bovine milk; experiment: LPO inhibition assay (ABTS oxidation by H2O2, absorbance at 412 nm; Lineweaver–Burk plots); assay type: biochemical; conditions: LPO purified from bovine milk; Lineweaver–Burk plots, three inhibitor and five ABTS concentrations; Means ± SD
Consider the following compounds; for each one, report its Ki.
One number for each entry, in µM.

# compound, Ki [µM]
records = [
    ("CC(=O)Oc1ccc(C(=O)Nc2ccc(S(=O)(=O)Nc3nnc(C)s3)cc2)cc1 [5f, N-(sulfamethizole)-p-acetoxybenzamide]", 0.324),
    ("CC(=O)Oc1ccc(C(=O)Nc2ccc(S(=O)(=O)Nc3onc(C)c3C)cc2)cc1 [5e, N-(sulfisoxazole)-p-acetoxybenzamide]", 0.934),
    ("CC(=O)Oc1ccc(C(=O)Nc2ccc(S(=O)(=O)Nc3nccc(C)n3)cc2)cc1 [5g, N-(sulfamerazine)-p-acetoxybenzamide]", 13.4),
    ("CC(=O)Oc1ccc(C(=O)Nc2ccc(S(=O)(=O)Nc3ncccn3)cc2)cc1 [5b, N-(sulfadiazine)-p-acetoxybenzamide]", 0.026),
]

Next item in the queue.
Request: Note down Ki recorded for CC(=O)Oc1ccc(C(=O)Nc2ccc(S(N)(=O)=O)cc2)cc1 [5h, N-(sulfanilamide)-p-acetoxybenzamide]
Response: 2.29
